Data provenance is the Kinase Knowledgebase extract (Sharma et al. 2016).

biological target: EGFR (UniProt P00533); settings: concentration not given here
Sequence (P00533 whole entry, looked up): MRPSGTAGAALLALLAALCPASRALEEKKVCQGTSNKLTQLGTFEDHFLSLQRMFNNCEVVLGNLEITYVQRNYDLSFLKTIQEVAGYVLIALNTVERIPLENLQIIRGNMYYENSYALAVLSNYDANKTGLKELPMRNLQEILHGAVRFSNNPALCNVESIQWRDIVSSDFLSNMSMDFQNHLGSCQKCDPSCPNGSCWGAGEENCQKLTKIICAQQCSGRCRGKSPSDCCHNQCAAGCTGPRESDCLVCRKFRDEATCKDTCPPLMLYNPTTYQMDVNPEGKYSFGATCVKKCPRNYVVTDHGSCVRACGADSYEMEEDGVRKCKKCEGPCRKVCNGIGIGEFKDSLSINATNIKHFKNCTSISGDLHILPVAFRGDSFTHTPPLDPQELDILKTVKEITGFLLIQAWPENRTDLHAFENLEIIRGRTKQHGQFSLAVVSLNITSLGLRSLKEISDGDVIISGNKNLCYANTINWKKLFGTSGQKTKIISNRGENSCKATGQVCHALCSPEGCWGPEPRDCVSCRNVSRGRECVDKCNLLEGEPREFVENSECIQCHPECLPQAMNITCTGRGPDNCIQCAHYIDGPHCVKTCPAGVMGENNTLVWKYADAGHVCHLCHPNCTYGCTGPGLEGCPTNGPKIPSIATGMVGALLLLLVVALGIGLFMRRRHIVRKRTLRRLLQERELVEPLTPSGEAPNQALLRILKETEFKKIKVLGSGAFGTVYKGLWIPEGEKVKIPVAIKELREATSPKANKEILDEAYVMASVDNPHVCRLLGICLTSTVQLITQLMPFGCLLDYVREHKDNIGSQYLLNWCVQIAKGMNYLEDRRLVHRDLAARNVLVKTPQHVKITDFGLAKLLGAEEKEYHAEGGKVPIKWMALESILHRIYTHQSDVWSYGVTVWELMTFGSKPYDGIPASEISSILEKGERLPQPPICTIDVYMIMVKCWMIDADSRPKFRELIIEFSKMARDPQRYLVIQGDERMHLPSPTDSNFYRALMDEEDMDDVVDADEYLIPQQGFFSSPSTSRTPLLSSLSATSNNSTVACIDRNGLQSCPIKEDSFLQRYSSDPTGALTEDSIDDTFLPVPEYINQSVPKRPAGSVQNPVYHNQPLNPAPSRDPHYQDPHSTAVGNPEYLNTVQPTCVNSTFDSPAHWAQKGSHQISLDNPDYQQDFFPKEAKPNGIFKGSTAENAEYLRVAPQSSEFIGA
property-measured: inhibition

The measured inhibition associated with COc1ccccc1-c1cc(Nc2ccc(NC(=O)[C@@H]3CCCCN3)cc2)ncn1 reads > 80%

For reference, reported inhibition for CCCS(=O)(=O)Nc1cc(Nc2cc(-c3cccc(N)c3)ncn2)ccc1C stands at > 80%

The reported value for COc1ccccc1-c1cc(Nc2ccc(NC(=O)C3(N)CCCCC3)cc2)ncn1 in terms of inhibition is > 80%

Reported inhibition ( COc1ccccc1-c1cc(Nc2ccc(NC(=O)CC3CCCCN3)cc2)ncn1 (stereo not given) ) = > 80%

Input NC(=O)c1ccc(Nc2cc(-c3ccccc3OCc3ccccc3)ncn2)cc1 . Output inhibition: 50 to 80%

Briefly, inhibition measured for COc1ccccc1-c1cc(Nc2ccc(NC(=O)NC3CCCCC3)cc2)ncn1 : 30 to 50%

Briefly, inhibition measured for COc1ccccc1-c1cc(Nc2ccc(N)cc2)ncn1 : > 80%

* * *

Listed below: IC50 values for each entry.
molecular target: CDK2 (UniProt P24941); assay: Enzyme Assay

Reference set (3 entries):
compound: COc1ccccc1-c1cc(Nc2ccc(NC(=O)c3ccccc3N)cc2)ncn1
assayed-target: CDK2 (UniProt P24941)
value-observed: 1 to 10 µM
//
compound: Oc1ccccc1-c1cc(NCCc2ccncc2)ncn1
assayed-target: CDK2 (UniProt P24941)
value-observed: 10 to 250 µM
//
compound: Cc1ccc(Nc2cc(-c3cccc(N)c3)ncn2)cc1NS(=O)(=O)c1cn(C)cn1
assayed-target: CDK2 (UniProt P24941)
value-observed: 0.001 to 1 µM

Moving on to another compound below.
// sample COc1ccccc1-c1cc(Nc2ccc(NC(=O)[C@@H](N)c3ccccc3)cc2)ncn1 , its IC50 was 1 to 10 µM

* * *

molecular target: CDK2 (UniProt P24941); assay: Enzyme Assay
property-measured: IC50

Solved cases (6 shown):
smiles-structure: Cc1ccc(Nc2cc(-c3cccc(C#N)c3)ncn2)cc1NS(C)(=O)=O
assayed-target: CDK2 (UniProt P24941)
IC50: 1 to 10 µM
//
smiles-structure: COc1ccccc1-c1cc(Nc2ccc(NC(=O)[C@@H]3Cc4ccccc4CN3)cc2)ncn1
assayed-target: CDK2 (UniProt P24941)
IC50: 1 to 10 µM
//
smiles-structure: Cc1ccc(Nc2cc(-c3cccc(O)c3)ncn2)cc1NS(C)(=O)=O
assayed-target: CDK2 (UniProt P24941)
IC50: 0.001 to 1 µM
//
smiles-structure: Cc1ccc(Nc2cc(-c3cccc(C(F)(F)F)c3)ncn2)cc1NS(C)(=O)=O
assayed-target: CDK2 (UniProt P24941)
IC50: 10 to 250 µM
//
smiles-structure: COc1ccccc1-c1cc(Nc2ccc(N)cc2C)ncn1
assayed-target: CDK2 (UniProt P24941)
IC50: 1 to 10 µM
//
smiles-structure: COc1ccccc1-c1cc(Nc2cccc(C(N)=O)c2)ncn1
assayed-target: CDK2 (UniProt P24941)
IC50: 0.001 to 1 µM

Query compound follows.
IC50 for COc1ccccc1-c1cc(Nc2ccc(NC(=O)C3(NC(=O)OC(C)(C)C)CCCC3)cc2)ncn1 is 10 to 250 µM

* * *

target: EGFR (UniProt P00533); conditions: concentration not given here
property-measured: inhibition

smiles-structure: COc1ccccc1-c1cc(Nc2ccc(N3CCCC3=O)cc2)ncn1
inhibition: 50 to 80%
//
smiles-structure: Nc1ccc(C(=O)Nc2ccc(Nc3cc(-c4ccccc4OCc4ccccc4)ncn3)cc2)cc1
inhibition: 30 to 50%
//
smiles-structure: NCCCOc1ccccc1-c1cc(Nc2ccc(NC(=O)c3ccc(N)cc3)cc2)ncn1
inhibition: > 80%
//
smiles-structure: CNC(C)(C)C(=O)Nc1ccc(Nc2cc(-c3ccccc3OC)ncn2)cc1
inhibition: > 80%

inhibition reported for this compound COc1ccccc1-c1cc(Nc2ccc(NC(C)=O)cc2)ncn1 : 50 to 80%

According to the records, this compound Cc1ccc(Nc2cc(-c3cccc(N)c3)ncn2)cc1NS(=O)(=O)c1ccccc1 displays inhibition of 50 to 80%

Reported inhibition ( CC(C)Oc1ccccc1-c1cc(Nc2ccc(NC(=O)c3ccc(N)cc3)cc2)ncn1 ) = 50 to 80%

compound COc1ccccc1-c1cc(Nc2ccc(NC(=O)Cc3ccccc3)cc2)ncn1 , inhibition observed: 30 to 50%

* * *

target: CDK2 (UniProt P24941); test: Enzyme Assay
property-measured: IC50

Please review the following examples before continuing.
molecule: Nc1cccc(-c2cc(Nc3cccc(S(N)(=O)=O)c3)ncn2)c1
IC50: 1 to 10 µM
//
molecule: COc1ccccc1-c1cc(Nc2ccc(NC(=O)CCN)cc2)ncn1
IC50: 1 to 10 µM
//
molecule: CC(C)(C)C(=O)Nc1ccc(Nc2cc(NCCN)ncn2)cc1
IC50: 10 to 250 µM
//
molecule: CS(=O)(=O)Nc1cccc(Nc2cc(-c3cccc(N)c3)ncn2)c1
IC50: 1 to 10 µM
//
molecule: Cc1ccc(S(=O)(=O)Nc2ccc(Nc3cc(Cl)ncn3)cc2)cc1
IC50: 1 to 10 µM
//
molecule: COc1ccccc1-c1cc(Nc2ccc(NC(=O)[C@@H]3CCCCN3)cc2)ncn1
IC50: 1 to 10 µM

Form field, IC50 with CDK2 (UniProt P24941), item COc1ccccc1-c1cc(Nc2ccc(NC(=O)C3(N)CCCCC3)cc2)ncn1 : 1 to 10 µM

// assay CDK2 (UniProt P24941), entry Nc1cccc(-c2cc(NCCc3ccncc3)ncn2)c1 , IC50 value = 1 to 10 µM

Measured on CDK2 (UniProt P24941), c1ccc(COc2ccccc2-c2cc(NCCc3ccncc3)ncn2)cc1 has a documented IC50 of 1 to 10 µM

* * *

target: CDK2 (UniProt P24941); assay: Enzyme Assay
pIC50: −log10 of the molar value.
In this section, each of the compounds is paired with its reported pIC50.

// COc1ccc(-c2cc(Nc3ccc(C)c(NS(C)(=O)=O)c3)ncn2)cc1 : pIC50 value = 6.00 to 9.00

Summary for this compound, COc1ccc(OC)c(-c2cc(Nc3ccc(NC(=O)c4ccc(N)cc4)cc3)ncn2)c1 : pIC50 is 3.60 to 5.00

* * *

biological target: CDK2 (UniProt P24941); experiment: Enzyme Assay
pIC50: −log10 of the molar value.
The entries below come with measured pIC50 values attached.

Below are worked cases with known answers.
molecule: Cc1ccc(S(=O)(=O)Nc2ccc(Nc3cc(-c4cccc(/C=C/C(=O)O)c4)ncn3)cc2)cc1
property-measured: pIC50
value-observed: 3.60 to 5.00
--
molecule: COc1ccccc1-c1cc(Nc2ccc(NC(=O)C3CCCN(C)C3)cc2)ncn1 (configuration not stated)
property-measured: pIC50
value-observed: 5.00 to 6.00

Memo: Cc1ccc(Nc2cc(-c3cncnc3)ncn2)cc1NS(C)(=O)=O , reported pIC50: 5.00 to 6.00

Noted for COc1ccccc1-c1cc(Nc2ccc(NC(=O)CC3CCCCN3C(=O)OC(C)(C)C)cc2)ncn1 (configuration not stated) : its pIC50 reads 5.00 to 6.00

* * *

biological target: CDK2 (UniProt P24941); test: Enzyme Assay
property-measured: IC50

Some solved cases for reference:
compound: COc1ccccc1-c1cc(Nc2ccc(NC(=O)[C@H]3CCCCN3)cc2)ncn1
IC50: 1 to 10 µM

compound: COc1ccccc1-c1cc(Nc2ccc(NC(=O)C3CCN(C)CC3)cc2)ncn1
IC50: 1 to 10 µM

compound: COc1ccccc1-c1cc(Nc2ccc(NC(=O)C(c3ccccc3)N(C)C)cc2)ncn1 (stereo not drawn)
IC50: 1 to 10 µM

compound: COc1ccccc1-c1cc(Nc2ccc(NC(=O)c3ccncc3)cc2)ncn1
IC50: 10 to 250 µM

compound: CS(=O)(=O)Nc1cccc(-c2cc(Nc3ccc(C(=O)N[C@@H]4CCCC[C@H]4N)cc3)ncn2)c1.CS(=O)(=O)Nc1cccc(-c2cc(Nc3ccc(C(=O)N[C@H]4CCCC[C@@H]4N)cc3)ncn2)c1
IC50: 1 to 10 µM

With CDK2 (UniProt P24941) as the test system, CCc1ccccc1-c1cc(Nc2ccc(NC(=O)C(C)(C)C)cc2)ncn1 showed IC50 of 1 to 10 µM

// assay CDK2 (UniProt P24941), entry Cc1ccc(Nc2cc(-c3cccc(NS(C)(=O)=O)c3)ncn2)cc1CS(N)(=O)=O , IC50 value = 0.001 to 1 µM

Reading of IC50 for Cc1ccc(Nc2cc(-c3cccc(CO)c3)ncn2)cc1NS(C)(=O)=O with CDK2 (UniProt P24941): 1 to 10 µM

Reported IC50 (CDK2 (UniProt P24941)) for entry COc1ccccc1-c1cc(Nc2ccc(NC(=O)c3ccc4ccccc4c3O)cc2)ncn1 is 1 to 10 µM

I looked up COc1ccccc1-c1cc(Nc2ccc(NC(=N)N)cc2)ncn1 and its IC50 for CDK2 (UniProt P24941) was 1 to 10 µM
